The measured values listed here are drawn from patent US9868766B2.

target: human V2 receptor (Homo sapiens); test: Calcium flux assay (FLIPR), agonist mode, CHO cells expressing human V2 + Gqs5; details: CHO cells stably expressing human V2 + chimeric Gqs5; calcium flux; read-out: hV2 EC50
Sequence (P30518 whole entry): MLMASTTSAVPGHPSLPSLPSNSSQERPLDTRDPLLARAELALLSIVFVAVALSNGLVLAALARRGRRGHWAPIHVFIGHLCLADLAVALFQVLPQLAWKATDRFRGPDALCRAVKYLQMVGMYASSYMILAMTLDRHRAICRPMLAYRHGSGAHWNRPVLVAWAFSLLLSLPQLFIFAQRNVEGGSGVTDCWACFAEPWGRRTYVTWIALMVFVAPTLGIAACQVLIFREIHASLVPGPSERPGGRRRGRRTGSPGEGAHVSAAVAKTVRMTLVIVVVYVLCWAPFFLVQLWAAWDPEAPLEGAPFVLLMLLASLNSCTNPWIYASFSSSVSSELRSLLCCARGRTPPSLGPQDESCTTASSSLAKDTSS
Positions of bridges follow the written chain, without caps; N, C: chain ends. Non-standard residues stand in square brackets, D forms with d. Residues, ends and D or L forms follow the SMILES beside them. Cha = N[C@@H](CC1CCCCC1)C(=O)O; Sar = CNCC(=O)O
Measured EC50 accompanies every entry in the list below.
Just the number in µM, nothing appended.

Here's what some known entries look like.
INSERT INTO measurements (compound, subject_of_test, number) VALUES
  ('CC[C@H](C)[C@@H]1NC(=O)[C@H](Cc2ccc(O)cc2)NC(=O)CNC(=O)CC[C@@H](C(=O)N2CCC[C@H]2C(=O)N[C@@H](CC(C)C)C(=O)NCC(N)=O)NC(=O)[C@H](CC(N)=O)NC(=O)[C@H](CCC(N)=O)NC1=O [Example 24] (GYIQNEPLG-NH2; lactam N-6)', 'human V2 receptor (Homo sapiens)', 2.51),
  ('CC[C@H](C)[C@@H]1NC(=O)[C@H](Cc2ccc(O)cc2)NC(=O)CNC(=O)CC[C@@H](C(=O)N(C)CC(=O)N[C@@H](CC2CCCCC2)C(=O)NCC(N)=O)NC(=O)[C@H](CC(N)=O)NC(=O)[C@H](CCC(N)=O)NC1=O [Example 39] (GYIQNE[Sar][Cha]G-NH2; lactam N-6)', 'human V2 receptor (Homo sapiens)', 3.71),
  ('CC[C@H](C)[C@@H]1NC(=O)[C@H](Cc2ccc(O)cc2)NC(=O)CNC(=O)CC[C@@H](C(=O)N(C)CC(=O)N[C@@H](CCC(=O)O)C(=O)NCC(N)=O)NC(=O)[C@H](CC(N)=O)NC(=O)[C@H](CCC(N)=O)NC1=O [Example 29] (GYIQNE[Sar]EG-NH2; lactam N-6)', 'human V2 receptor (Homo sapiens)', 10.7);

Now let's try a different one.
Q) Consider the compound CC[C@H](C)[C@@H]1NC(=O)[C@H](Cc2ccc(O)cc2)NC(=O)CNC(=O)CC[C@@H](C(=O)N(C)CC(=O)N[C@@H](CC(C)C)C(=O)NCC(N)=O)NC(=O)[C@H](CC(N)=O)NC(=O)[C@H](CCC(N)=O)NC1=O [Example 13] (GYIQNE[Sar]LG-NH2; lactam N-6) . State its measured EC50.
A) 5.11

* * *

Measured EC50 accompanies every entry in the list below.
biological target: human Oxytocin (OTR) receptor (Homo sapiens, UniProt P30559); test: Calcium flux assay (FLIPR), agonist mode, CHO cells expressing human OTR; settings: CHO cells stably expressing human OTR; calcium flux; read-out: hOT EC50
Sequence (P30559 whole entry): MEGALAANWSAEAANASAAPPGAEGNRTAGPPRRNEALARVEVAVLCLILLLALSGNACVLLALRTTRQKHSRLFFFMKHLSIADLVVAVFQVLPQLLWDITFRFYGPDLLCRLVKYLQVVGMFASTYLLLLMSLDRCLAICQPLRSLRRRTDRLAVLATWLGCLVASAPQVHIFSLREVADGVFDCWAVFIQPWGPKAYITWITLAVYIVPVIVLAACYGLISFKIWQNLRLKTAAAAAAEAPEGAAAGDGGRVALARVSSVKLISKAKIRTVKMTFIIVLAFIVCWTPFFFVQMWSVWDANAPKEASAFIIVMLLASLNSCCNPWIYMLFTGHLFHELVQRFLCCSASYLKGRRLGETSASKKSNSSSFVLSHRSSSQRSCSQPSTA
Positions of bridges follow the written chain, without caps; N, C: chain ends. Non-standard residues stand in square brackets, D forms with d. Residues, ends and D or L forms follow the SMILES beside them. Pro(trans-4-F) = O=C(O)[C@@H]1C[C@@H](F)CN1; aThr = C[C@H](O)[C@H](N)C(=O)O; Aze = O=C(O)[C@@H]1CCN1; Sar = CNCC(=O)O
Just the number in nM, nothing appended.

INSERT INTO measurements (compound, readout_label, measurement_unit, number) VALUES
  ('CC[C@H](C)[C@@H]1NC(=O)[C@H](Cc2ccc(O)cc2)NC(=O)CNC(=O)CC[C@@H](C(=O)N(C)CC(=O)N[C@H](C(=O)NCC(N)=O)[C@H](C)O)NC(=O)[C@H](CC(N)=O)NC(=O)[C@H](CCC(N)=O)NC1=O [Example 25] (GYIQNE[Sar][aThr]G-NH2; lactam N-6)', 'EC50', 'nM', 3),
  ('CC[C@H](C)[C@@H]1NC(=O)[C@H](Cc2ccc(O)cc2)NC(=O)CNC(=O)CC[C@@H](C(=O)N2C[C@H](F)C[C@H]2C(=O)N[C@@H](CC(C)C)C(=O)NCC(N)=O)NC(=O)[C@H](CC(N)=O)NC(=O)[C@H](CCC(N)=O)NC1=O [Example 46] (GYIQNE[Pro(trans-4-F)]LG-NH2; lactam N-6)', 'EC50', 'nM', 10);

Q) Consider the compound CC[C@H](C)[C@@H]1NC(=O)[C@H](Cc2ccc(O)cc2)NC(=O)CNC(=O)CC[C@@H](C(=O)N2CC[C@H]2C(=O)N[C@@H](CC(C)C)C(=O)NCC(N)=O)NC(=O)[C@H](CC(N)=O)NC(=O)[C@H](CCC(N)=O)NC1=O [Example 50] (GYIQNE[Aze]LG-NH2; lactam N-6) . State its measured EC50.
A) 3.6
